test: chemical genetic growth profiling, strain panel (AID 1159580);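 also: tested at 20 µM; growth read once vehicle control cultures reached saturation at 30 °C; 1 = growth at the plate median or of vehicle wells; lower values mean less growth of the strain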; settings: S. cerevisiae deletion strains, growth OD, locus YER016W, strain bim1, stronger effect = lower value
In all, about 5,500 compounds went through this assay and about 2,000 (36%) were called active. About 18% were inconclusive and are not listed. This is one part of the list.
Examples of compounds with documented normalized growth follow.

COMPOUND	normalized growth
C=C1CCC(OC(C)=O)/C(C)=C/C[C@@H]2[C@@H]1CC2(C)C (stereo not given in full)	1.01 (inactive)
C=CCSCC1Nc2cc(Cl)c(S(N)(=O)=O)cc2S(=O)(=O)N1 (stereo not given)	1 (inactive)
CC(C)C(=O)Nc1ccc([N+](=O)[O-])c(C(F)(F)F)c1	1.01 (inactive)
CO/N=C(\C(=O)N[C@@H]1C(=O)N2C(C(=O)O)=C(CSc3nc(=O)c(O)nn3C)CS[C@H]12)c1csc(N)n1	0.976 (inactive)
O=C(C1CCCCC1)N1CC(=O)N2CCc3ccccc3C2C1 (stereo not given)	0.989 (inactive)
O=C(O)CN1C(=O)c2cccc3cccc(c23)C1=O	0.996 (inactive)
C=C1CCC(C2CC(=O)OC2=O)C(=O)CCC2C1CC2(C)C (stereo not given)	1 (inactive)
Cc1cccc(Nc2ccccc2C(=O)O)c1C	0.918 (active)
Cc1c(Cl)cccc1Nc1ccccc1C(=O)O	0.856 (active)
C[C@@H]1C(=O)OC2[C@H](O)C34[C@@H]5OC(=O)[C@@]3(O[C@@H]3OC(=O)[C@H](O)[C@@]34[C@H](C(C)(C)C)[C@H]5O)[C@]21O (stereo not given in full)	0.975 (inactive)
COC(=O)C[C@H]1C(C)(C)C(=O)[C@@H]2CC3=C(CC[C@]4(C)C3=CC(=O)O[C@H]4c3ccoc3)[C@@]1(C)C2=O	0.971 (inactive)
COc1ccc2c(c1OC)C(=O)OC2[C@H]1c2c(cc3c(c2OC)OCO3)CCN1C (stereo not given in full)	1 (inactive)
CO/N=C(\C(=O)N[C@@H]1C(=O)N2C(C(=O)O)=C(COC(C)=O)CS[C@H]12)c1csc(N)n1	0.99 (inactive)
Clc1cccc(Cl)c1NC1=NCCN1	0.996 (inactive)
CC(=O)OCC(OC(C)=O)C(OC(C)=O)C(OC(C)=O)C(OC(C)=O)C(COC(C)=O)OC(C)=O (stereo not given)	0.988 (inactive)
CC(C)COCC(CN(Cc1ccccc1)c1ccccc1)N1CCCC1 (stereo not given)	1.02 (inactive)
CC[C@H](C)C(=O)O[C@H]1CCC=C2C=C[C@H](C)C(CCC3C[C@@H](O)CC(=O)O3)[C@H]21 (stereo not given in full)	0.999 (inactive)
CC(C)C(C)/C=C/C(C)[C@H]1CCC2C3=CCC4CC(=O)CC[C@]4(C)C3CC[C@@]21C (stereo not given in full)	1 (inactive)
CCC(C)(C)C(=O)O[C@H]1C[C@@H](C)C=C2C=C[C@H](C)[C@H](CC[C@@H]3C[C@@H](O)CC(=O)O3)[C@H]21	0.953 (inactive)
O=C(O)CN(CC(=O)O)Cc1cc2c(-c3ccccc3C(=O)O)c3cc(CN(CC(=O)O)CC(=O)O)c(=O)cc-3oc2cc1O	0.986 (inactive)
NS(=O)(=O)c1cc2c(cc1Cl)NC(C(Cl)Cl)NS2(=O)=O (stereo not given)	0.926 (inactive)
COC(=O)[C@@H]1OC(=O)[C@H]2O[C@@]23[C@@]1(C)CCC1[C@@]2(C)CCC(=O)C(C)(C)C2C[C@@H](OC(C)=O)[C@]13C (stereo not given in full)	0.98 (inactive)
CC1(C)NC(=O)N(c2ccc([N+](=O)[O-])c(C(F)(F)F)c2)C1=O	0.983 (inactive)
CC(=O)N[C@@H](CS)C(=O)O	0.995 (inactive)
O=S1OCC2C(CO1)C1(Cl)C(Cl)=C(Cl)C2(Cl)C1(Cl)Cl (stereo not given)	0.991 (inactive)
O=c1cc(-c2ccccc2O)oc2cc(O)ccc12	0.973 (inactive)
CO[C@@]1(NC(=O)CSCC#N)C(=O)N2C(C(=O)O)=C(CSc3nnnn3C)CSC21 (stereo not given in full)	0.968 (inactive)
CO/N=C(\C(=O)NC1C(=O)N2C(C(=O)OC(C)OC(C)=O)=C(COC(N)=O)CSC12)c1ccco1 (stereo not given)	0.99 (inactive)
CC(C)NCC(O)COc1cccc2ccccc12 (stereo not given)	1.01 (inactive)
O=C(O)c1ccccc1-c1c2cc(Br)c(=O)cc-2oc2[c]([Hg])c(O)c(Br)cc12	1.06 (inactive)
CC(C)NNC(=O)c1ccncc1	1.01 (inactive)
CO/N=C(\C(=O)NC1C(=O)N2C(C(=O)O)=C(COC(N)=O)CSC12)c1ccco1 (stereo not given)	0.992 (inactive)
O=C1OC(c2ccc(O)cc2)(c2ccc(O)cc2)c2ccccc21	0.984 (inactive)
C=C1CCC2C(CC2(C)C)C(=O)CCC1O (stereo not given)	1 (inactive)
O=C1OC2(c3ccc(O)cc3Oc3cc(O)ccc32)c2ccccc21	0.994 (inactive)
